- Test system: UACC-257 melanoma
- method: NCI-60 one-dose screen, 48 h
- condition.parameters: 10 µM unless noted
Compounds without any hit were thinned out: in the full panel of roughly 83,000, 20% have a hit. Active and inactive are the calls of the source. The calls were made as follows: active = growth percent below 10; inactive = the rest.
Log the outcome using a class from active, inactive

Before answering, review these 2 worked examples.
compound	class.label
O=C(NCc1cccnc1)c1cc(-c2csc3c(=O)cc(N4CCOCC4)oc23)cc2c1OCCO2	inactive
COc1ccc(C(=O)/C=C/C23c4ccccc4C(c4ccccc42)C2C(=O)NC(=O)C23)cc1 (stereo not drawn)	inactive

Enquiry: What did this assay record as the result for CNC(=O)c1cc(Oc2ccc3nc(NC(=O)Nc4cc(C(F)(F)F)cc(C(F)(F)F)c4)sc3c2)ccn1 ?
Return: active

Enquiry: What did this assay record as the result for Cc1nc2ccccc2c(/C=C/c2ccc(Cl)cc2)c1C(=O)/C=C/c1ccc(Cl)cc1 ?
Return: active

---

- Tested on: SN12C renal
- method: NCI-60 one-dose screen, 48 h (100 = growth as untreated, 0 = no growth, -100 = all killed)
- condition.parameters: 10 µM unless noted
- Experimental: Growth inhibition of the SN12C human tumor cell line is measured as a screen for anti-cancer activity. Cells are grown in 96 well plates and exposed to the test compound for 48 hours. Compounds are tested at a single concentration, which is 10^-5 M for most compounds. The reported endpoint is percent growth (GI% or GIPRCNT), where numbers from 0 - 100% represent growth inhibition, and numbers from -100% - 0 represent cell death. For example, a value of 40 represents 60% growth inhibition. […]
About 83,000 compounds went through this panel and 20% of them were active in at least one assay; those are over-represented in the sample as a whole.
growth by entry:
Output spec: scalar in %, unitless text.

Example entries and their recorded answers appear below.
molecule	observed.result
N#Cc1c(N)nc2c(nnn2-c2cccc(C(F)(F)F)c2)c1N	87.7
CCCN1CCN(c2ccc3nc(-c4ccc5nc(-c6cc(OC)c(OC)c(OC)c6)[nH]c5c4)[nH]c3c2)CC1	85.4
CC(=O)Nc1ccc(-c2cc3c(NCc4ccc(F)cc4)ncnc3s2)cc1	72.6
N=C(N)c1ccc(-c2ccc(-c3ccc(Cl)cn3)s2)cc1	10.2
CNC(=O)c1cc(Oc2ccc3nc(NC(=O)Nc4cc(C(F)(F)F)cc(C(F)(F)F)c4)sc3c2)ccn1	-18.7
COc1cc(/C=C2\C=C(c3ccccc3)N(CCc3ccccc3)C2=O)cc(OC)c1OC	82

// O=C(O)CC1Sc2ccccc2NC1=O (configuration not stated) : growth value = 102

// O=C(CCCCCCCn1cc(-c2cccnc2)nn1)Nc1ccccc1-c1ccccc1 : growth value = 25.8

// C=C(C)[C@@H]1CC[C@@]2(C(=O)O)CC[C@]3(C)C(CCC4[C@@]5(C)CCC(OS(=O)(=O)c6ccccc6)C(C)(C)C5CC[C@]43C)C12 (some centres not stated) : growth value = 62.2

// Cc1nc(Nc2cccc(NC(=O)Nc3ccc(Cl)cc3)c2)c2ccccc2n1 : growth value = 92.9

// CCCNCC(=O)Nc1ccc(C(=O)OC(C)(C)CC)cc1 : growth value = 105

// N#C/C(=C\c1ccc(Br)cc1)n1nnc2cc(Cl)c(Cl)cc21 : growth value = 35

// COc1ccc(-c2nc3sccn3c2/C=C/C(=O)c2c[nH]c3ccccc23)cc1 : growth value = 71.7

// COc1cc(NC(=O)c2cc(O)c(CC=C(C)C)c(O)c2)cc2c1O[C@]1(C)CC[C@@H](O)C(C)(C)[C@H]1C2 : growth value = 65.3

// O=C(NC1CCOCC1)c1ccc2c(c1)CN(c1ncc(Cc3cccc(-n4cccn4)c3)s1)CC2 : growth value = 82.1

// NC(=Nc1ccc(N)cc1)C(N)=Nc1ccc(N)cc1 : growth value = 104

// COc1ccc(/C(C)=C(\c2ccc(Cl)cc2)c2ccc(OCCN3CCCC3)cc2)cc1F : growth value = 51.6

// CCn1c(Sc2nnc(NC(=O)CCN3CCCC3)s2)nc2c1c(=O)n(C)c(=O)n2C : growth value = 96.8

// COc1ccc(C2=NC(=O)NC2c2ccc(OC)cc2)cc1 (configuration not stated) : growth value = 71

---

- Test system: HCT-116 colon
- method: NCI-60 one-dose screen, 48 h (100 = growth as untreated, 0 = no growth, -100 = all killed)
- condition.parameters: 10 µM unless noted
Compounds without any hit were thinned out: in the full panel of roughly 83,000, 20% have a hit. Calls of active or inactive are those of the source. How the source made its calls: active means growth percent below 10; inactive means the rest.
metric: growth

Example entries and their recorded answers appear below.
In [3]: df
Out[3]:
                                   molecule  metric   observed_result
0  COc1cc(C2CC(=O)Nc3n[nH]c(-c4ccccc4)c32)cc(OC)c1OC (stereo unspecified)  growth  45.1% (inactive)
1  CCN(CC)CC(O)CNc1c2ccc(Cl)cc2nc2ccc(OC)cc12 (stereo unspecified)  growth   -32.1% (active)
2           O=S(=O)(Cc1ccccc1)c1nc2ccccc2s1  growth    9.47% (active)
3   CCNCCNc1cc(C2CCCC2)c(C#N)c2nc3ccccc3n12  growth    1.61% (active)
4  O=C(CC12CC3CC(CC(C3)C1)C2)NCCOCCOCCOCCNC(=O)c1cc2c(o1)C(=O)c1ccccc1C2=O  growth   -19.6% (active)

Here's the next entry for you.
// Nc1c(-c2nc3ccccc3c(=O)[nH]2)nnn1-c1ccc(Cl)cc1 : growth value = 78.8% (inactive)

---

- Test system: TK-10 renal
- method: NCI-60 one-dose screen, 48 h (100 = growth as untreated, 0 = no growth, -100 = all killed)
- condition.parameters: 10 µM unless noted
- Description: Growth inhibition of the TK-10 human tumor cell line is measured as a screen for anti-cancer activity. Cells are grown in 96 well plates and exposed to the test compound for 48 hours. Compounds are tested at a single concentration, which is 10^-5 M for most compounds. The reported endpoint is percent growth (GI% or GIPRCNT), where numbers from 0 - 100% represent growth inhibition, and numbers from -100% - 0 represent cell death. For example, a value of 40 represents 60% growth inhibition. […]
About 83,000 compounds went through this panel and 20% of them were active in at least one assay; those are over-represented in the sample as a whole.
metric: growth (%)
Output spec: scalar in %, unitless text.

Example entries and their recorded answers appear below.
In [3]: df
Out[3]:
                               input_smiles  readout_units  observed_result
0  Cc1[nH]c(-c2nc3ccccc3[nH]2)c(C)c1C(=O)NNc1ccc(Cl)cc1              %              106
1                            CC(=O)Nc1nccs1              %             99.9
2  CCNCCNc1cc(-c2ccc(C#N)cc2)c(C#N)c2nc3ccccc3n12              %             82.3

// CCOC(=O)c1c(C)nc2c(c1N)/C(=C/c1cc(OC)c(OC)c(OC)c1)C(=O)N2c1ccc(OC)cc1 : growth value = 77.4

---

- Tested on: U251 CNS
- method: NCI-60 one-dose screen, 48 h
- condition.parameters: 10 µM unless noted
About 83,000 compounds went through this panel and 20% of them were active in at least one assay; those are over-represented in the sample as a whole. Active and inactive are the calls of the source. The calls were made as follows: active = growth percent below 10; inactive = the rest.
Log the outcome using a class from active, inactive

compound	class.label
N[C@@H]1CCC[C@H]1NCCCCN1C(=O)c2cccc3cccc(c23)C1=O	inactive
Cc1cc(C)on1	inactive
CN1C[C@@H](c2ccc(Cl)cc2)[C@]2(NC(=S)N(c3ccccc3)C2=O)[C@@]12C(=O)NC1C=CC(Br)=C[C@H]12 (some centres undefined)	inactive

Here's the next entry for you.
Enquiry: What did this assay record as the result for O=C(NC(=S)Nc1ccc(-c2nc3ccccc3[nH]2)cc1)c1ccc2ccccc2c1 ?
Return: inactive

---

- Test system: TK-10 renal
- method: NCI-60 one-dose screen, 48 h
- condition.parameters: 10 µM unless noted
Compounds without any hit were thinned out: in the full panel of roughly 83,000, 20% have a hit. Calls of active or inactive are those of the source. Rule for the calls: active = growth percent below 10; inactive = the rest.
Log the outcome using a class from YES for active, NO for inactive

In [3]: df
Out[3]:
                                   compound  class_label
0    Cc1ccc2c(n1)C(=O)C(Oc1ccc(F)cc1)=CC2=O           NO
1               OCCCCc1nccc2c1[nH]c1ccccc12           NO
2  CCOc1cc(C2C(Cl)C(=O)N2n2cnnc2)ccc1O (stereo unspecified)           NO

Enquiry: What did this assay record as the result for COc1cc(NC(=O)c2cccc(-c3cc(=O)c4c(OC)c(OC)c(OC)cc4o3)c2)cc(OC)c1OC ?
Return: NO

Enquiry: What did this assay record as the result for C[C@@H]1C(=O)N(C[C@@H](Cc2ccccc2)NC(=O)OCc2ccccc2)[C@]1(Cc1ccccc1)C(=O)OCc1ccccc1 ?
Return: NO

Enquiry: What did this assay record as the result for CC(C)c1ccc(NC(=O)Cc2ccc(Nc3ncnc4cc(-c5cnn(CCN(C)C)c5)ccc34)cc2)cc1 ?
Return: YES
